tested on: KB-3-1; assay: Cytotoxic Profiling of Annotated Libraries Using Quantitative High-Throughput Screening (AID 1296008); conditions: Five cell lines viability, CellTiter-Glo ATP luminescence, 48-72 h; active compounds read low; note: % is set by controls: 0 for no effect and ±100 for the full control effect; nearly all actives have a fitted effect of over 60% in size
Results filed as inconclusive are left out.
Item-by-item account of max response
Report the value in % with no unit label.

Use these answered entries as a reference point.
1) Cn1c(SCC(=O)N2CCC[C@H]2C(=O)Nc2ccccc2-c2ccccc2)nc2ccccc21 :: 7.08
2) CCCCCCCCCCCCCCCC(=O)OC[C@H](O)[C@H]1OC(=O)C(O)=C1O :: -14.1
3) O=C(NCCN1CCOCC1)c1cc2c(Oc3ccc(NC(=O)C4(C(=O)Nc5ccc(F)cc5)CC4)cc3)ccnc2[nH]1 :: 4.4

Send back KB-3-1 max response of CC(=O)OC1CC2(C)C(CCC(C)C23Cc2c(O)cc(CO)c(C=O)c2O3)C(C)(C)C1O (centres undefined) only.
1.75

Recall the reported max response of `COC(=O)c1ccc2c(c1)[nH]c1ncnc(NCCCN3CCCCC3)c12` on KB-3-1 and write it down.
-20.2

Under KB-3-1: report max response of `CC[C@H](C)/C=C(C)/C=C/C1=CC2=C(Cl)C(=O)[C@](C)(O)[C@H](OC(C)=O)[C@H]2CO1` .
-1.44

====

tested on: Zika virus NS2B-NS3 protease (unlinked complex); test: Primary screen GU Rhodamine qHTS for Zika virus inhibitors: Unlinked NS2B-NS3 protease assay (AID 1347159); settings: Recombinant ZIKV NS2B-NS3 protease, Rhodamine110 substrate fluorescence; series mostly up to 107 µM; note: nearly all actives have a fitted effect of over 60% in size
Inconclusive results are not listed. Activity calls are given as the source filed them. Calls come from the whole dose curve; as a rule, active = well fitted inhibition curve with a large enough effect; inconclusive = small, poorly fitted or top-dose-only effect; inactive = no such curve, though single readings can be large or run the other way.
Your answer must be one of the following: TRUE (active), FALSE (inactive)

// known answers, use as guide
1. O=C(Nc1ccccc1Cl)c1cnc2ccc(C3CCNCC3)cn12 :: FALSE
2. CN(C)CCC(CSc1ccccc1)Nc1ccc(S(=O)(=O)NC(=O)c2ccc(N3CCN(Cc4ccccc4-c4ccc(Cl)cc4)CC3)cc2)cc1[N+](=O)[O-] (stereo not given) :: TRUE
3. C=C(COC(=O)C(O)C(O)CN)C12OC1C1(C)C(=CC2=O)C(O)C(O)CC1C (stereo not given) :: FALSE

Would you mind telling me which call this test gave `COC(=O)c1ccc2c(c1)[nH]c1ncnc(NCCCN3CCCCC3)c12` ?
FALSE

What did the test return for `COc1cc(O)cc(/C=C/c2cccc(O)c2)c1` ?
FALSE

====

test system: C33A; test: Primary qHTS to identify gynecologic anti-cancer compounds using libraries of approved drugs and bioactive compounds (AID 1345084); settings: Gynecologic cancer cell panel viability, ATPlite luminescence, 48 h; series mostly up to 57.5 µM; note: nearly all actives have a fitted effect of over 55% in size
Records with an inconclusive call do not appear. Activity calls are given as the source filed them. Calls follow the shape of the dose curve; as a rule, active = well fitted cell-killing curve with a large enough effect; inconclusive = small, poorly fitted or top-dose-only effect, or effect the other way; inactive = flat fitted curve, though single readings scatter.
Result category, one only: T for active, F for inactive

Each molecule tested received a call. Report the one for Cc1sc2c(c1C)C(c1ccc(Cl)cc1)=N[C@@H](CC(=O)Nc1ccc(OCCOCCOCCOCCNc3cccc4c3C(=O)N(C3CCC(=O)NC3=O)C4=O)cc1)c1nnc(C)n1-2 (stereo partly drawn) .
F

// param item: `C/C=C(\C)C(=O)O[C@H]1C=CC(=O)O[C@H]1/C=C/[C@@H](O)[C@H](C)O` ; yields the recorded call
F

Status in this test for `CC(C)[C@@H](c1ccc(C(F)(F)F)cc1CN(Cc1cc(C(F)(F)F)cc(C(F)(F)F)c1)c1nnn(C)n1)N1CCC(C(=O)O)CC1` ?
F

Please indicate how the test categorized C=C(C)C1CCC2(C(=O)O)CCC3(C)C(CCC4C5(C)C(C=O)C(O)C(C)(C)C5CCC43C)C12 (stereo not drawn) .
F

// outcome(item) with item = Cn1ncc(Cl)c1-c1cc(C(=O)NC(CN)Cc2ccc(F)c(F)c2)oc1Cl (stereo not drawn)
T

Assay result, entry CC/C(C)=C/C(=O)OC1C(OC2(C)CCC3C(C4C(C)CCC42)C3(C)C)OC(C)C(O)C1O (stereo not drawn) — outcome?
F

Just curious, what result did `CCCCCCCCC(=O)N[C@H](CN1CCCC1)[C@H](O)c1ccc2c(c1)OCCO2` get here?
F

Would you mind telling me which call this test gave CC(=O)Nc1nc(C)c(-c2nc(N3CCCC(O)C3)no2)s1 (stereo not drawn) ?
F

Outcome logged for `CC[C@@H]1C[C@]1(NC(=O)[C@@H]1C[C@@H]2CN1C(=O)[C@H](C(C)(C)C)NC(=O)OCC(C)(C)CCCCc1cccc3c1CN(C3)C(=O)O2)C(=O)NS(=O)(=O)C1CC1` in this assay:
F

Assay result, entry `C=C1C(=O)O[C@@H]2[C@H]1CCC(C)=C(CCC(=O)O)[C@@]2(C)O` — outcome?
F

So what was the verdict on `CNCc1cc(-c2ccccc2F)n(S(=O)(=O)c2cccnc2)c1` in this test?
F

So what was the verdict on `C=C1[C@H]2CC[C@H](C(=O)O)[C@@]23CC[C@H](C3)C1(C)C` in this test?
F

What is the recorded call for this molecule in the test? `C/C=C(\C)[C@@H]1C(C)=C[C@@H]2[C@H]([C@@H]1/C=C/C=C/C(=O)O)[C@@H](C)CC[C@@H]2O`
F

====

target: Cytochrome P450 2D6 (Homo sapiens) (UniProt P10635); assay: Cytochrome P450 family 2 subfamily D member 6 (CYP2D6) small molecule antagonists: luciferase biochemical (cell-free) qHTS assay (AID 1645840); details: P450-Glo CYP2D6 enzyme, luciferin luminescence, 1 h; series mostly up to 57.4 µM; note: nearly all actives have a fitted effect of over 55% in size
Sequence (P10635 whole entry, looked up): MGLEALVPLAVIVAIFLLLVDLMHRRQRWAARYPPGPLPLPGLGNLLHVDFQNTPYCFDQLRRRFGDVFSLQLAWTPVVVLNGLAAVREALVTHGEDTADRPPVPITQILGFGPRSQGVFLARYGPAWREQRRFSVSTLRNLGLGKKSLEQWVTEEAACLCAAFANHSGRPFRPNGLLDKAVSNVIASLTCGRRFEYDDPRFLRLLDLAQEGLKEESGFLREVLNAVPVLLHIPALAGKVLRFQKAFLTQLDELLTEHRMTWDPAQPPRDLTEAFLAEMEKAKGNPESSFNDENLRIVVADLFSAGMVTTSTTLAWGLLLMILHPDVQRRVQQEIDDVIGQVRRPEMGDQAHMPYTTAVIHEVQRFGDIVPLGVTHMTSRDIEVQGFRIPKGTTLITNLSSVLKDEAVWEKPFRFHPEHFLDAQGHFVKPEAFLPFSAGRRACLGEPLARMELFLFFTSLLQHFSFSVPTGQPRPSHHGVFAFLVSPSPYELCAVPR
Records with an inconclusive call do not appear. Active and inactive are the calls of the source. Calls come from the whole dose curve; as a rule, active = well fitted inhibition curve with a large enough effect in the repeat runs; inconclusive = weak or mixed curves; inactive = flat fitted curve, though single readings scatter.
Give your call using only these classes: 1 (active), -1 (inactive)

1. CCc1cc2c(cc1CC)CC(NCC(O)c1ccc(O)c3[nH]c(=O)ccc13)C2 (stereo unspecified) :: 1
2. COc1cc(/C=N\NC(=O)c2ccc3c(c2)OCO3)ccc1OCc1ccccc1 :: 1
3. O=C(O)c1ccc(S(=O)(=O)N(Cc2ccc(OC(F)(F)F)cc2)c2ncc(C(F)(F)F)cc2Cl)cc1 :: -1
4. Cc1[nH]cnc1C[C@H]1CCc2c(C)c3ccccc3n2C1=O :: 1
5. COc1ccc(-c2csc(NC(=O)[C@H]3CCCCN3S(=O)(=O)c3ccc(C)cc3)n2)cc1 :: -1
6. O=C(Nc1ccc(Cl)cc1)Nc1cccc(-c2cccc(N3CCCC3)n2)c1 :: 1
7. C=Cc1ccccc1 :: -1
8. O=C(CSc1nc2ccccc2c(=O)n1-c1ccccc1)Nc1ccc2c(c1)CCC2 :: -1
9. Cc1csc(N(C(=O)CSc2ccc(-c3ccccc3)nn2)C2CC2)n1 :: -1
10. C#Cc1cccc(Nc2nc3cc(C(=O)O)ccc3c3cncnc23)c1 :: -1

In the following, a different compound is considered.
What is the recorded call for this compound in the test? `C[C@@H](N[C@H]1CCCC[C@@H]1NC(=O)c1ccc(Cl)cc1)c1cccc2ccccc12`
1

====

test system: OV90; experiment: Primary qHTS to identify gynecologic anti-cancer compounds using libraries of approved drugs and bioactive compounds (AID 1345084); details: Gynecologic cancer cell panel viability, ATPlite luminescence, 48 h; series mostly up to 57.5 µM; note: nearly all actives have a fitted effect of over 55% in size
Results filed as inconclusive are left out. Active and inactive are the calls of the source. Calls follow the shape of the dose curve; as a rule, active = well fitted cell-killing curve with a large enough effect; inconclusive = small, poorly fitted or top-dose-only effect, or effect the other way; inactive = flat fitted curve, though single readings scatter.
Write down one outcome, taken from 1 = active, -1 = inactive

1) CC(C)C[C@@H](C(=O)N[C@@H](Cc1ccc(OCc2ccccc2)cc1)C(=O)NC(C)(C)C)N(C)Cc1ccc(C(C)(C)C)cc1 :: -1

Tell me the assay call for `COC1=CC(=O)O/C1=C(/OC)[C@@H]1O[C@H]1c1ccccc1` please.
-1

Recorded test call requested for `Cc1cccc(N2CCN(C(=O)c3cc(S(=O)(=O)N(C)C)ccc3N3CCCC3)CC2)c1C`
-1

Test call for this molecule, please: `CN(C)CCN(Cc1ccc(-c2ccc(CNCCc3ccccc3)cc2)cc1)C(=O)CCC1CCCC1`
1

# lookup: test call for `CC(C)(C)NC(=O)[C@H]1CC[C@H]2[C@@H]3CC[C@H]4NC(=O)CC[C@]4(C)[C@H]3CC[C@]12C`
-1

In this assay, the call recorded for `COc1c2c(c(C)c3c1C(=O)OC3)O[C@@]1(C)C[C@@H](OC(C)=O)[C@]34O[C@](OC)(CC[C@]3(C)[C@H]1C2)OC4(C)C` was what?
-1

I would be grateful if you could indicate the recorded call for `CC(C)CCCCC(=O)N[C@@H](CO)C(=O)N[C@@H](CC(C)C)C(=O)[C@@]1(CO)CO1` .
-1

Tell me the recorded outcome of this test for `O=C(C1CCCCC1)N(CCN1CCN(c2ccccc2O)CC1)c1ccccn1` .
-1

Recorded call for `CCc1ccccc1OC[C@@H](O)CN[C@H]1CCCc2ccccc21` ?
-1

====

target: Phospholipid hydroperoxide glutathione peroxidase GPX4 (Homo sapiens) (UniProt P36969); experiment: Primary qHTS Assay for Inhibitors of Recombinant Selenoprotein Glutathione Peroxidase 4 (GPX4) (AID 1845192); conditions: recombinant GPX4, GR-coupled NADPH fluorescence, 15 min; series mostly up to 50 µM; note: nearly all actives have a fitted effect of over 65% in size
Sequence (P36969 whole entry, looked up): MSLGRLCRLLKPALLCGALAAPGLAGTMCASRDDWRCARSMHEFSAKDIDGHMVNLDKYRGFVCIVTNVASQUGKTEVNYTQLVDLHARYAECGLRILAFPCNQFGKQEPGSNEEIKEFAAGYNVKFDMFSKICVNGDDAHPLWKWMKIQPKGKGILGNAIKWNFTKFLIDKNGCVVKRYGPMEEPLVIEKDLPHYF
Results filed as inconclusive are left out. The source made the active and inactive calls. Calls follow the shape of the dose curve; as a rule, active = well fitted inhibition curve with a large enough effect; inconclusive = small, poorly fitted or top-dose-only effect; inactive = flat fitted curve, though single readings scatter.
READOUT NAME: outcome

1) CN1CC(O)c2cc(N=NC(N)=O)c(O)cc21 (stereo not given) :: inactive
2) C=C(C)C(=O)O[C@H]1C[C@@](C)(O)C2(O)CCC(C)(/C=C3/OC(=O)C(COC)=C31)O2 (stereo not given in full) :: inactive
3) C=C1[C@H]2CC[C@H](C(=O)O)[C@@]23CC[C@H](C3)C1(C)C :: inactive
4) O=C(Nc1ccccc1C(=O)Nc1ccc(CCO)cc1)c1ccc([N+](=O)[O-])cc1 :: inactive
5) COc1ccc(OC)c(-c2ccc(NC(=O)c3ccncc3F)cc2)c1 :: inactive
6) CCNC1(C(N)=O)CCN(c2ncnc3c2nc(-c2ccccc2Cl)n3-c2ccc(Cl)cc2)CC1 :: inactive

Query outcome for `Fc1ccc(-c2nc(-c3ccccc3F)[nH]c2-c2ccncc2)cc1`
inactive

Retrieve outcome measured for C=C1C(=O)OC2/C=C(\COC(C)=O)CC/C=C(\C=O)CC(OC(=O)CC(C)C)C12 (stereo not given) and print it.
inactive

Determine from records and report outcome for `Nc1nc2c(nc(Br)n2[C@@H]2O[C@@H]3COP(=O)(O)O[C@H]3[C@H]2O)c(=O)[nH]1`
inactive

Look up and state reported outcome for `COC(=O)C(Cc1ccc(OCCn2c(=O)sc3cc(C(=O)c4ccccc4)ccc32)cc1)C(=O)OC`
inactive

For C=C1C(=O)O[C@@H]2[C@H]1CC[C@H](C)C(CCC(=O)O)C2(C)O (stereo not given in full) , write its outcome.
inactive
